# Experiment Description: Antiproliferative activity against human ES2 cells after 48 hrs by SRB assay
# Format: functional, cell-based
# Run Conditions: ES-2, 48 h
pIC50: −log10 of the molar value.
Property: pIC50; scope: individual molecules

{"columns": ["Molecule", "Comparative Sign", "pIC50"],
 "data": [
  ["C=C(C)C1CC[C@H]2[C@@H]3CC[C@H]([C@H](C)CCC(=O)NC4CC4)[C@@]3(C)CC[C@@H]2[C@@]1(C)CCC(=O)NC1CC1 (some centres undefined)", "<", 4.10],
  ["C=C(C)C1CC[C@H]2[C@@H]3CC[C@H]([C@H](C)CCC(=O)N4CCN(c5ccccc5F)CC4)[C@@]3(C)CC[C@@H]2[C@@]1(C)CCC(=O)N1CCN(c2ccccc2F)CC1 (some centres undefined)", "<", 4.10],
  ["C=C(C)C1CC[C@H]2[C@@H]3CC[C@H]([C@H](C)CCC(N)=O)[C@@]3(C)CC[C@@H]2[C@@]1(C)CCC(N)=O (some centres undefined)", "=", 4.43],
  ["C=C(C)C1CC[C@H]2[C@@H]3CC[C@H]([C@H](C)CCC(=O)OC)[C@@]3(C)CC[C@@H]2[C@@]1(C)CCC(=O)N1CCN(C)CC1 (some centres undefined)", "=", 4.50]
]}
